test system: Saccharomyces cerevisiae; experiment: protein stability index of tFT-peptide fusion (C-terminal peptide) (PSI (0-1 scale)); higher = more stable (slower turnover); settings: genetic background: das1 deletion; temperature: 37 C
PARAMETER_MEASURED: protein stability index

INSERT INTO assay_data (chain, target_desc, measurement) VALUES
  ('LRVGVRSWGGKW', 'Saccharomyces cerevisiae', 0.437),
  ('LVFRVSLVEVVL', 'Saccharomyces cerevisiae', 0.36),
  ('VLVVVAFVALPR', 'Saccharomyces cerevisiae', 0.485),
  ('FSFSAFARFLVI', 'Saccharomyces cerevisiae', 0.7),
  ('VRLLLIFRLLVI', 'Saccharomyces cerevisiae', 0.551),
  ('PPVLAPHLCFPP', 'Saccharomyces cerevisiae', 0.739),
  ('TLLAFLIYLCFL', 'Saccharomyces cerevisiae', 0.546),
  ('FFFSFSFPFLSF', 'Saccharomyces cerevisiae', 0.559);

---

Consider the following sequences and their measured protein stability index readings.
tested on: Saccharomyces cerevisiae; experiment: protein stability index of tFT-peptide fusion (C-terminal peptide) (PSI (0-1 scale)); higher = more stable (slower turnover); conditions: genetic background: wild type; temperature: 30 C
PARAMETER_MEASURED: protein stability index

INSERT INTO results (chain, parameter_measured, measurement) VALUES
  ('WCGGGGVACLLL', 'protein stability index', 0.693),
  ('IREQGQSLCKST', 'protein stability index', 0.603),
  ('FAALACKSRLEF', 'protein stability index', 0.685),
  ('IGLRCPPPKPYA', 'protein stability index', 0.696),
  ('SLTNYQRLIHVC', 'protein stability index', 0.258),
  ('PPPPPPPLPRSP', 'protein stability index', 0.721),
  ('SFARMTAIPGLR', 'protein stability index', 0.661),
  ('PFPPRRLLSAPP', 'protein stability index', 0.671),
  ('LHSPATAPHRPP', 'protein stability index', 0.67),
  ('INHVIHAKLRFS', 'protein stability index', 0.237),
  ('GIGYVTPLSRVL', 'protein stability index', 0.72),
  ('PAQDCAATGVRR', 'protein stability index', 0.672),
  ('KMGRTEIWTIHL', 'protein stability index', 0.685);

---

Consider the following sequences and their measured protein stability index readings.
system: Saccharomyces cerevisiae; assay: protein stability index of tFT-peptide fusion (C-terminal peptide) (PSI (0-1 scale)); higher = more stable (slower turnover); conditions: genetic background: das1 deletion; temperature: 30 C
PARAMETER_MEASURED: protein stability index

INSERT INTO assay_data (chain, measurement) VALUES
  ('KIRPTFGDNQAS [HST3 C-terminal 12 aa]', 0.692),
  ('IKSLFSLAKEAS [MSC7 C-terminal 12 aa]', 0.703),
  ('PEMDKEKKKFYL [RPF1 C-terminal 12 aa]', 0.724),
  ('CGGKRNLQRNNF [YLR149C-A C-terminal 12 aa]', 0.703),
  ('EALGKGGRGKRY [LSO1 C-terminal 12 aa]', 0.671),
  ('ELPGVAFLSEKK [PGK1 C-terminal 12 aa]', 0.728),
  ('QIILQKEGVLDK [KCC4 C-terminal 12 aa]', 0.704),
  ('GVALAGALAFLI [HOR7 C-terminal 12 aa]', 0.688);

---

Consider the following sequences and their measured protein stability index readings.
test system: Saccharomyces cerevisiae; test: protein stability index of tFT-peptide fusion (C-terminal peptide) (PSI (0-1 scale)); higher = more stable (slower turnover); conditions: genetic background: wild type; temperature: 30 C
PARAMETER_MEASURED: protein stability index

INSERT INTO assay_data (chain, measurement) VALUES
  ('IELIQNMNKESF [YOR131C C-terminal 12 aa]', 0.692),
  ('EGRKVKKVSFAQ [LOC1 C-terminal 12 aa]', 0.711),
  ('LLGVGIAFYQDR [YJR112W-A C-terminal 12 aa]', 0.678),
  ('ESPIDAEKNFAR [INA1 C-terminal 12 aa]', 0.682),
  ('CNYYYHPRITFA [RMT2 C-terminal 12 aa]', 0.708),
  ('LMLGVAYYLLNE [CYB5 C-terminal 12 aa]', 0.649),
  ('RKSKKDTDSDSD [BMT5 C-terminal 12 aa]', 0.695),
  ('RLLGPCFKTGGI [YLR154W-B C-terminal 12 aa]', 0.675),
  ('CMKAVILYSEQM [ATE1 C-terminal 12 aa]', 0.685),
  ('KLGLFRHIFSRK [LRE1 C-terminal 12 aa]', 0.704),
  ('IKVDNIVHIRND [YFH7 C-terminal 12 aa]', 0.723),
  ('KFDEKTATLVDE [YDL144C C-terminal 12 aa]', 0.675),
  ('LSLRSLQIMGRN [DSS4 C-terminal 12 aa]', 0.726),
  ('IKLEDAKGTHIK [RAD59 C-terminal 12 aa]', 0.641),
  ('TLRGLSNAFPTD [MME1 C-terminal 12 aa]', 0.703),
  ('ALWKEKKEKPRS [RPS23A C-terminal 12 aa]', 0.687),
  ('SSTGTPEHDQDT [EUC1 C-terminal 12 aa]', 0.682),
  ('KQPDLQERVTQE [MHF1 C-terminal 12 aa]', 0.685),
  ('AQGKLIMKVEGF [AST2 C-terminal 12 aa]', 0.72),
  ('LLCRDSSREVGE [YBL113C C-terminal 12 aa]', 0.673),
  ('IEAPQFYRYWSA [SWI3 C-terminal 12 aa]', 0.706),
  ('PDCTVCSNSNSN [UBA3 C-terminal 12 aa]', 0.677);

---

system: Saccharomyces cerevisiae; experiment: protein stability index of tFT-peptide fusion (C-terminal peptide) (PSI (0-1 scale)); higher = more stable (slower turnover); details: genetic background: wild type; temperature: 30 C
Response key: class 1 means protein stability index >= 0.3; class 0 means protein stability index < 0.3.

INSERT INTO results (chain, group_label) VALUES
  ('GPVRSPPSPTPR', 'class 1'),
  ('RVLVEIVYFKVF', 'class 0'),
  ('PLFLLTFAITLV', 'class 0'),
  ('RNFSFTVICLAM', 'class 1'),
  ('LFIRSFLFFSHF', 'class 0'),
  ('ILAVMFEIYAIL', 'class 0'),
  ('LCFLVLLSLLLL', 'class 1'),
  ('SYCFCCCVLFWG', 'class 1'),
  ('VVFVGRSIVVLT', 'class 1'),
  ('TTGLLPSAYIWS', 'class 1'),
  ('FFVWGVFLGVSW', 'class 0'),
  ('YFICLSLVLFSY', 'class 0'),
  ('SYFSVTLFFTVI', 'class 0'),
  ('RRQQNHRQLCAT', 'class 0');

---

test system: Saccharomyces cerevisiae; experiment: protein stability index of tFT-peptide fusion (C-terminal peptide) (PSI (0-1 scale)); higher = more stable (slower turnover); settings: genetic background: wild type; temperature: 30 C
Consider the following sequences and their measured protein stability index readings.
PARAMETER_MEASURED: protein stability index

INSERT INTO measurements (chain, measurement) VALUES
  ('RTDTKPTGEHEA', 0.694),
  ('GGRVPRCRTVLL', 0.681),
  ('RVVEPKWDWRRG', 0.68),
  ('SRWMWFDWLRRA', 0.417),
  ('PPHQPRTPNSPP', 0.68),
  ('NINHTNLKENKD', 0.667),
  ('FIGWFSLMSCSV', 0.604),
  ('SRSFWHAIVFLA', 0.122),
  ('YGNTQFLTQTWY', 0.705),
  ('RCGRSVSCLATG', 0.696),
  ('SGAVGSTNYGTR', 0.743),
  ('PPPLRAPPLSLP', 0.62),
  ('EGGESRGKGYRS', 0.691);

---

tested on: Saccharomyces cerevisiae; experiment: protein stability index of tFT-peptide fusion (C-terminal peptide) (PSI (0-1 scale)); higher = more stable (slower turnover); details: genetic background: das1 deletion; temperature: 30 C
PARAMETER_MEASURED: protein stability index

INSERT INTO measurements (chain, target_desc, parameter_measured, measurement) VALUES
  ('MTKISILKPFLH [CDC6 C-terminal 12 aa]', 'Saccharomyces cerevisiae', 'protein stability index', 0.711),
  ('VDNFISVLKQGQ [LOS1 C-terminal 12 aa]', 'Saccharomyces cerevisiae', 'protein stability index', 0.708),
  ('SFRLTKRQTDND [POS5 C-terminal 12 aa]', 'Saccharomyces cerevisiae', 'protein stability index', 0.702),
  ('FGSSRSEWYLAL [YPL114W C-terminal 12 aa]', 'Saccharomyces cerevisiae', 'protein stability index', 0.701),
  ('MMAVDTDVDMDA [YPL071C C-terminal 12 aa]', 'Saccharomyces cerevisiae', 'protein stability index', 0.668);
